src = the MegaScale stability set (Tsuboyama et al. 2023)

B1: HEEH_KT_rd6_3632 (parent)
chain: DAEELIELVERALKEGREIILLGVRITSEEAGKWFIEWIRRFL

- Variants of: B1
- Experimental protocol: folding stability dG (cDNA display proteolysis); higher = more stable
- Test settings: PBS, room temperature
Measured metric: folding stability dG (kJ/mol)
Only the number, expressed in kJ/mol, is required.

Some variants with recorded folding stability dG:
# Sequence code, Measured metric, Uom, Val
data = [
    ("DAEELIELVERALKEGREIILLGVRIESEEAGKWFIEWIRRFL [T27E]", "folding stability dG", "kJ/mol", 14.4),
    ("DAEENIELVERALKEGREIILLGVRITSEEAGKWFIEWIRRFL [L5N]", "folding stability dG", "kJ/mol", 11.4),
]

Report measured folding stability dG; entry is DAEELIELVERALKEGRPIILLGVRITSEEAGKWFIEWIRRFL [E18P]
15.2

Answer with the recorded folding stability dG of DLEELIELVERALKEGREIILLGVRITSEEAGKWFIEWIRRFL [A2L] only.
18

# return recorded folding stability dG for input WAEELIELVERALKEGREIILLGVRITSEEAGKWFIEWIRRFL [D1W]
19.4

Assign folding stability dG to the following record: DAEELIELVERALKEGREIILLGVRITSEEAGKWGIEWIRRFL [F35G]
11

For the variant DFEELIELVERALKEGREIILLGVRITSEEAGKWFIEWIRRFL [A2F] , give its measured folding stability dG value.
17.6

For the variant DAEELIELMERALKEGREIILLGVRITSEEAGKWFIEWIRRFL [V9M] , give its measured folding stability dG value.
14.4

Return value of folding stability dG for input DAEELIELVERALKERREIILLGVRITSEEAGKWFIEWIRRFL [G16R] , no commentary.
14.4

Tell me measured folding stability dG for DAEELIELVERALKEGREIILLGVRITSEEAGKWFIEWERRFL [I39E] please.
11.2
